Values compiled from PubChem BioAssay (NCATS).

experiment: Cytotoxicity counterscreen for inhibitors of SARS-CoV-2 cell entry (AID 1645845); details: cell viability (SARS-CoV-2 entry assay cells); series mostly up to 57.1 µM; also: nearly all actives have a fitted effect of over 50% in size
Records with an inconclusive call do not appear. Active and inactive are the calls of the source. Calls follow the shape of the full dose curve.
Field 'call' accepts active, inactive

Call for entry CN(C)C1C(=O)C(C(N)=O)=C(O)C2(O)C(=O)C3=C(O)c4c(O)ccc(Cl)c4C(C)(O)C3CC12 (stereo not given) :
inactive

* * *

experiment: qHTS for differential inhibitors of proliferation of Plasmodium falciparum line D10 (AID 1877); conditions: series mostly up to 28.7 µM;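 also: parasites grown with compound for 72 h before DNA staining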
Inconclusive results are not listed. Calls of active or inactive are those of the source. Calls come from the whole dose curve; as a rule, active = well fitted curve in the direction sought with a large enough effect; inconclusive = small, poorly fitted or top-dose-only effect, or another doubt; inactive = no such curve, though single readings can be large or run the other way.
Field 'call' accepts active, inactive

Answered examples (5):
COMPOUND: CCNC(=O)[C@H]1O[C@@H](n2cnc3c(N)ncnc32)[C@H](O)[C@H]1O
CATEGORY LABEL: inactive

COMPOUND: CC(C)[C@@]1(NC(=O)[C@@H]2C[C@@H]3c4cccc5[nH]cc(c45)C[C@H]3N(C)C2)O[C@@]2(O)C3CCCN3C(=O)[C@H](Cc3ccccc3)N2C1=O (some centres undefined)
CATEGORY LABEL: active

COMPOUND: CN1CCC23CCCC[C@H]2C1Cc1ccc(O)cc13 (some centres undefined)
CATEGORY LABEL: inactive

COMPOUND: C/C=C(/C)C(=O)O[C@H]1C(C)=C2C([C@@H]1OC(=O)CCCCCCC)[C@@](C)(OC(C)=O)C[C@@H](OC(=O)CCC)[C@@]1(O)[C@H]2OC(=O)[C@@]1(C)O (some centres undefined)
CATEGORY LABEL: active

COMPOUND: C#CCN(C)C(C)Cc1ccccc1 (centres undefined)
CATEGORY LABEL: inactive

Call for entry C[C@]12CC[C@H](O)CC1=CCC1C2CC[C@]2(C)C(=O)CC[C@@H]12 (some centres undefined) :
inactive

Call for entry CCCN1CCC[C@@H](c2cccc(C#N)c2)C1 :
inactive

Call for entry C[C@]12CC[C@H]3[C@@H](CCC4C[C@H](O)CC[C@@]43C)[C@@H]1CC[C@@H]2O (some centres undefined) :
inactive

Call for entry COc1cc(C[C@@H](C)N)c(OC)cc1I :
inactive
